FYI, the data here is from the supplement of paper PMC10567573.

B1: NP_006221.1 (parent)
chain: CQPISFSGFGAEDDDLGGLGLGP

variants of: B1; experiment: protein stability index of a GFP-peptide fusion (GPS, HEK-293T) (PSI 1-6); higher = more stable; settings: c terminus: native;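 also: lentivirally expressed fusion library, cells FACS-sorted into six equal-sized GFP/DsRed ratio bins, PSI computed from sequencing read fractions per bin weighted by bin number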
Kindly supply the reported protein stability index values for the records listed here.
Form rule: numeric answer, no unit written next to it.

Challenge: protein stability index lookup needed for "P23D" , thanks.
Response given: 5.01

Challenge: Request the reported protein stability index associated with "G10H"
Response given: 1.99

Challenge: I'd like to know its protein stability index. The variant in question is "D13P"
Response given: 2.08

Challenge: Please report the recorded protein stability index for "G18F" .
Response given: 2.24

Challenge: Need protein stability index of "F9E" , thanks.
Response given: 2.98

Challenge: I have this variant here, "D14A" , and I need its recorded protein stability index.
Response given: 2.23

Challenge: Reported protein stability index, variant "L19E" : ____
Response given: 2.49

Challenge: I would be grateful if you could share the reported protein stability index for "D14V" .
Response given: 2.12

Challenge: What measured protein stability index goes with "F9T" ?
Response given: 2.7

Challenge: Form field: reported protein stability index of "G10F"
Response given: 2.06

Challenge: I would be grateful if you could share the reported protein stability index for "S7Q" .
Response given: 2.48

Challenge: Requested read-out: protein stability index. Entry: "G18E"
Response given: 2.42

Challenge: I am curious: what protein stability index value has been reported for "S7M" ?
Response given: 2.47

Challenge: # protein stability index lookup, item "L19S"
Response given: 2.91

Challenge: Can you look up the measured protein stability index of "D15A" for me?
Response given: 2.28

Challenge: What value of protein stability index has been recorded for this entry: "G18S"
Response given: 2.24

Challenge: Any idea what protein stability index was measured for "L16M" ?
Response given: 2.45

Challenge: Any idea what its protein stability index is? The variant is "G18H"
Response given: 1.99

Challenge: What does the record list as protein stability index for "G17E" ?
Response given: 2.36

Challenge: Recorded protein stability index of "S7W" , please.
Response given: 2.42

Challenge: // query protein stability index value for entry "L21N"
Response given: 4.89

Challenge: Returns the measured protein stability index for the input variant. Input: "I4V"
Response given: 2.54

Challenge: Suppose we examine the variant "I4H" ; what protein stability index value has been reported?
Response given: 2.25

Challenge: Bench note: what protein stability index did "S7C" show?
Response given: 2.11

Challenge: Given the variant "L19G" , what is its reported protein stability index?
Response given: 2.87

Challenge: Recorded protein stability index of "F9H" , please.
Response given: 2.42

Challenge: Item under review: "P3M" . Reported protein stability index?
Response given: 2.15

Challenge: Look up protein stability index for this variant: "G10L"
Response given: 2.56

Challenge: # query: protein stability index of entry "S7D"
Response given: 3.66

Challenge: Please give the measured protein stability index for this variant: "A11R"
Response given: 2.32

Challenge: // lookup protein stability index for "D13W"
Response given: 2.31

Challenge: What value of protein stability index has been recorded for this entry: "F6C"
Response given: 3.41

Challenge: Could you tell me which protein stability index is on file for "G17S" ?
Response given: 2.26

Challenge: What protein stability index value was documented for this variant, "F9I" ?
Response given: 2.35

Challenge: Dear colleague, I am looking for the recorded protein stability index of the following variant: "G17C"
Response given: 2.2

Challenge: Quick one: protein stability index of "G20C" ?
Response given: 2.51

Challenge: Look at this variant and give its reported protein stability index. "L21P"
Response given: 5.09
